Kindly supply the reported EC50 values for the records listed here.
# System: HBV rcDNA
# runDescription: HepDE19 assay with bDNA quantitation of HBV rcDNA
# Assay type: cell-based, hepatitis B virus
# conditionSet: HepDE19 assay, inhibition of formation of relaxed circular DNA (rcDNA), bDNA quantitation; read-out: DE-19bDNA EC50
Answers are plain numbers, in nM.

# example entries with known answers
1) CC(c1c[nH]c(=O)c2ccccc12)N(Cc1ccccn1)C(=O)Nc1ccc(F)c(Cl)c1 (single isomer, unassigned) [Compound 305] : 590
2) CC(c1cnc(OCc2ncn(C)n2)c2cc(F)c(F)cc12)N(CCCO)C(=O)Nc1ccc(F)c(Cl)c1 (single isomer, unassigned) [Compound 348] : 1100

Now look at this one.
### Prompt Which measured EC50 value corresponds to CC(C)CN(C(=O)Nc1ccc(F)c(Cl)c1)C(C)c1c[nH]c(=O)c2c(F)cccc12 (single isomer, unassigned) [Compound 361] ?
### Response 12

Reference source for all entries: patent US20230045421A1
